# recombinant UMI read abundance (log10) annotations
method: recombinant UMI read abundance after kanamycin selection (control-corrected) (log10(CPM+1)); higher = more efficient recombination; extreme values may be limits of the assay; sequences stand for … in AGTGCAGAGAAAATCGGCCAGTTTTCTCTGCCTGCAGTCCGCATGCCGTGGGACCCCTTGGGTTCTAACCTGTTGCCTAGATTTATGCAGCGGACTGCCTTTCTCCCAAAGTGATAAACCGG…AGGTTGGTTTCACT; site = the 11-nt donor;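 note: IS621 bridge recombinase in Escherichia coli cells against a fixed T5 target plasmid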
readout.kind: recombinant UMI read abundance (log10)

>  <primary.sequence>
CGATCGACATGGACCGGTTTTCCCGGTAATCCGTATTTGTT (site CAATCGACTAA)

>  <readout.kind>
recombinant UMI read abundance (log10)

>  <value>
0.0144

$$$$
>  <primary.sequence>
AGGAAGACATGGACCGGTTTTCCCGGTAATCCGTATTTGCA (site ACGATGACTTG)

>  <readout.kind>
recombinant UMI read abundance (log10)

>  <value>
0

$$$$
>  <primary.sequence>
CATTATGCATGGACCGGTTTTCCCGGTAATCCGTATTTGGA (site TATTATGCTTC)

>  <readout.kind>
recombinant UMI read abundance (log10)

>  <value>
0.208

$$$$
>  <primary.sequence>
CTCTCATCATGGACCGGTTTTCCCGGTAATCCGTATTTGCT (site CTCTCATCTAG)

>  <readout.kind>
recombinant UMI read abundance (log10)

>  <value>
2.05

$$$$
>  <primary.sequence>
TGTTTGGCATGGACCGGTTTTCCCGGTAATCCGTATTTGTG (site TCTTTGGCTCA)

>  <readout.kind>
recombinant UMI read abundance (log10)

>  <value>
0.00613

$$$$
>  <primary.sequence>
TGTTTGGCATGGACCGGTTTTCCCGGTAATCCGTATTTGTG (site TATTTGGCTCA)

>  <readout.kind>
recombinant UMI read abundance (log10)

>  <value>
0.0286

$$$$
>  <primary.sequence>
AAGGTAACATGGACCGGTTTTCCCGGTAATCCGTATTTGCT (site AAAGTAACTAG)

>  <readout.kind>
recombinant UMI read abundance (log10)

>  <value>
2.59

$$$$
>  <primary.sequence>
CTCGGTCCATGGACCGGTTTTCCCGGTAATCCGTATTTGCA (site CACGGTCCTTG)

>  <readout.kind>
recombinant UMI read abundance (log10)

>  <value>
0.779

$$$$
>  <primary.sequence>
AGGACTACATGGACCGGTTTTCCCGGTAATCCGTATTTGAT (site AGGACTACTTT)

>  <readout.kind>
recombinant UMI read abundance (log10)

>  <value>
0.00536

$$$$
